Origin of measurements: paper PMC9971447

# Tested on: RAW 264.7 mouse macrophage cell line (nitric oxide synthase readout)
# assay.remarks: LPS-triggered NO
# Type: cell-based
# condition.parameters: read-out: NOS- IC50 value; LPS 20 μg/mL, RAW264.7, 24h incubations, mean ± SD, n = 3
quantity.measured: pIC50
To interpret pIC50, take it as minus log10 of a concentration measured in moles per litre.

Take a look at these entries with their results.
CC[C@H](C)C(=O)O[C@H]1C[C@@H](C)C=C2C=C[C@H](C)[C@H](CC[C@@H]3C[C@@H](O)CC(=O)O3)[C@H]21 [Lovastatin] = 4.38
CCC(C)(C)C(=O)O[C@H]1C[C@@H](C)C=C2C=C[C@H](C)[C@H](CC[C@@H]3C[C@@H](O)CC(=O)O3)[C@H]21 [Simvastatin] = 4.37

What does the record list as pIC50 for CC(C)c1c(C(=O)Nc2ccccc2)c(-c2ccccc2)c(-c2ccc(F)cc2)n1CC[C@@H](O)C[C@@H](O)CC(=O)O [Atorvastatin] ?
4.37

Reported pIC50 for COc1ccc2c(c1)c(CC(=O)O)c(C)n2C(=O)c1ccc(Cl)cc1 [Indomethacin] : what is it?
4.06
